- Measurement Description: Solubility in 50 mM phosphate buffer at pH 7.4
- Type: physicochemical
- Experimental Context: aqueous buffer
The following compounds are listed with their measured solubility values.

Compound | solubility / µM
CCn1c(-c2nonc2N)nc2c(C#CC(C)(C)O)ncc(OCCCN3CCCCC3)c21 [Example 1] | 35
CCn1c(-c2nonc2N)nc2c(C#CC(C)(C)O)ncc(OCCCN3CCCC3)c21 [Example 2] | 152
CCn1c(-c2nonc2N)nc2c(C#CC(C)(C)O)ncc(OCC[C@H](C)N)c21 [Example 9] | 119
CCn1c(-c2nonc2N)nc2c(C#CC(C)(C)O)ncc(OCCCNC3CCC3)c21 [Example 5] | 86
CCn1c(-c2nonc2N)nc2c(C#CC(C)(C)O)ncc(OCC(F)CN)c21 (single isomer, unassigned) [Example 17] | 92
CCn1c(-c2nonc2N)nc2c(C#CC(C)(C)O)ncc(OC(CCN)C3CCCCC3)c21 (stereo not shown) [Example 18] | 112
CCn1c(-c2nonc2N)nc2c(C#CC(C)(C)O)ncc(OCCC(N)C3CCSCC3)c21 (single isomer, unassigned; (-)) [Example 14] | 151
CCn1c(-c2nonc2N)nc2c(C#CC(C)(C)O)ncc(OC[C@@H](C)CNC3CC3)c21 [Example 6] | 27
CCn1c(-c2nonc2N)nc2c(C#CC(C)(C)O)ncc(OCC[C@@H](N)C(C)C)c21 [Example 4] | 206
CCn1c(-c2nonc2N)nc2c(C#CC(C)(C)O)ncc(OCC3(CN)CC3)c21 [Example 15] | 160
